test system: male spontaneously hypertensive rats; assay: Decrease in systolic blood pressure in spontaneously hypertensive rats after intravenous bolus injection, indirect (tail-cuff) method; assay type: in vivo, rat; settings: dose 10 mg/kg i.v. bolus, 0.5 hour after administration
Quantity: Decrease in systolic blood pressure (mmHg) time after administration (hour) 0.5

{"Compound": "COc1ccc(C(=O)CCCN2CCC(=C3c4ccccc4CCc4ccccc43)CC2)cc1OC.Cl [Example 187]", "Obs value": "−47"}
{"Compound": "COc1ccc(C(C#N)(CCCN2CCC(=C3c4ccccc4C=Cc4ccccc43)CC2)C(C)C)cc1OC.Cl (stereo not shown) [Example 31]", "Obs value": "−61"}
{"Compound": "CC(=O)N1CCCC(CCCN2CCC(=C3c4ccccc4C=Cc4ccccc43)CC2)C1.Cl (stereo not shown) [Example 280]", "Obs value": "−50"}
{"Compound": "Cl.Clc1ccccc1CN1CCC(=C2c3ccccc3C=Cc3ccccc32)CC1 [Example 128]", "Obs value": "−129"}

---

tested on: male spontaneously hypertensive rats; test: Decrease in systolic blood pressure in spontaneously hypertensive rats after intravenous bolus injection, indirect (tail-cuff) method; format: in vivo, rat; conditions: dose 10 mg/kg i.v. bolus, 0.5 hour after administration
Quantity: Decrease in systolic blood pressure (mmHg) time after administration (hour) 0.5

{"Compound": "C1=Cc2ccccc2C(=C2CCN(CCCC3CCCNC3)CC2)c2ccccc21.Cl.Cl (stereo not shown) [Example 281]", "Value unit": "mmHg", "Obs value": "−31"}
{"Compound": "CCCCCCC(C#N)(CCCN1CCC(=C2c3ccccc3C=Cc3ccccc32)CC1)c1cccc(C(F)(F)F)c1.Cl (stereo not shown) [Example 151]", "Value unit": "mmHg", "Obs value": "−81"}
{"Compound": "Cc1ccccc1C(=O)N1CCC(=C2c3ccccc3C=Cc3ccccc32)CC1 [Example 190]", "Value unit": "mmHg", "Obs value": "−11"}
{"Compound": "C1=Cc2ccccc2C(=C2CCN(Cc3ccccn3)CC2)c2ccccc21.Cl.Cl [Example 161]", "Value unit": "mmHg", "Obs value": "−64"}

---

test system: male spontaneously hypertensive rats; experiment: Decrease in systolic blood pressure in spontaneously hypertensive rats after intravenous bolus injection, indirect (tail-cuff) method; type: in vivo, rat; conditions: dose 10 mg/kg i.v. bolus, 0.5 hour after administration
Quantity: Decrease in systolic blood pressure (mmHg) time after administration (hour) 0.5

{"Compound": "COc1ccc(CCC(=O)N2CCC(=C3c4ccccc4C=Cc4ccccc43)CC2)cc1OC", "Obs value": "−54 mmHg"}
{"Compound": "Cl.O=[N+]([O-])c1ccc(C=CCN2CCC(=C3c4ccccc4CCc4ccccc43)CC2)cc1", "Obs value": "−136 mmHg"}
{"Compound": "Cl.Nc1cccc2c1CC(CN1CCC(=C3c4ccccc4C=Cc4ccccc43)CC1)C2 (centres unmarked)", "Obs value": "−93 mmHg"}
{"Compound": "Cl.O=C(CCN1CCC(=C2c3ccccc3C=Cc3ccccc32)CC1)OC1CCCCC1", "Obs value": "−10 mmHg"}
{"Compound": "Cc1cccc(CN2CCC(=C3c4ccccc4C=Cc4ccccc43)CC2)c1.Cl", "Obs value": "−106 mmHg"}
{"Compound": "CCCCCCCN1CCC(=C2c3ccccc3C=Cc3ccccc32)CC1.Cl", "Obs value": "−115 mmHg"}
{"Compound": "CC(=O)NC1CCC(CCCCN2CCC(=C3c4ccccc4C=Cc4ccccc43)CC2)CC1.Cl (centres unmarked)", "Obs value": "−51 mmHg"}
{"Compound": "C1=Cc2ccccc2C(=C2CCN(Cc3ccccc3)CC2)c2ccccc21.Cl", "Obs value": "−27 mmHg"}
